assay-summary: Activity for HIV-2 CBL-20
readout-label: CC50 (µg/mL)

>>> df
                                   compound  qualifier_operator  reported_value
0  COc1ccccc1NC(=O)c1c(N)cccc1Sc1ccc([N+](=O)[O-])cc1 [Compound 25]                   =             164
1  COc1ccccc1NC(=O)c1c(NC(=O)CN)cccc1S(=O)(=O)c1ccc([N+](=O)[O-])cc1.Cl [Compound 67, hydrochloride hydrochloride]                   =             106
2  COc1ccccc1NC(=O)c1c(N)cccc1S(=O)(=O)c1ccc([N+](=O)[O-])cc1 [Compound 46]                   >             200

----------
assay-summary: Cytotoxicity (CC50) in H9 cells
Type: cell-based, human
condition-info: human
readout-label: CC50 (µg/mL)

In [3]: df
Out[3]:
                                smiles_text  readout_label  units_symbol  reported_value
0  O=C(O)c1cccc(NC(=O)c2c(Sc3ccc([N+](=O)[O-])cc3)cccc2[N+](=O)[O-])c1           CC50         µg/mL            85.8

----------
Test system: HIV-1IIIB
assay-summary: Anti-HIV activity in H9 cells
Type: cell-based
condition-info: H9 cells, CC50/EC50
readout-label: TI

>>> print(df.to_string())
                                   compound  readout_label  qualifier_operator  reported_value
0  COc1ccccc1NC(=O)c1c(NS(=O)(=O)c2ccccc2)cccc1Sc1ccc([N+](=O)[O-])cc1 [Compound 56]             TI                   >            1.46
1  COc1ccccc1NC(=O)c1c(Sc2ccc([N+](=O)[O-])cc2)cccc1N1CCNCC1 [Compound 62]             TI                   =            3.71
2  COc1ccccc1NC(=O)c1c(NS(=O)(=O)c2ccc(C)cc2)cccc1Sc1ccc([N+](=O)[O-])cc1 [Compound 57]             TI                   >           11.90
3  COc1ccccc1NC(=O)c1c(N)cccc1Sc1ccc([N+](=O)[O-])cc1 [Compound 25]             TI                   =          206.68

----------
Test system: HIV-1IIIB
assay-summary: Anti-HIV activity in H9 cells
Assay type: cell-based
condition-info: H9 cells, CC50/EC50
readout-label: TI

                                smiles_text  readout_label  qualifier_operator  reported_value
0  COc1ccc(NC(=O)c2c(N)cccc2Sc2ccc([N+](=O)[O-])cc2)c(OC)c1             TI                   =            0.96
1  COc1cc(N)ccc1NC(=O)c1c(N)cccc1Sc1ccc([N+](=O)[O-])cc1             TI                   =            2.87
2  COc1ccccc1NC(=O)c1c(NC(=O)CN)cccc1Sc1ccc([N+](=O)[O-])cc1.Cl             TI                   =          451.69
3  COc1ccccc1NC(=O)c1cc(NC(C)=O)ccc1Sc1ccc([N+](=O)[O-])cc1             TI                   <            0.37

----------
assay-summary: Cytotoxicity (CC50) in H9 cells
Format: cell-based, human
condition-info: human, H9 cells; read-out: CC50
readout-label: CC50

>>> print(df.to_string())
                                smiles_text  readout_label  reported_value
0  Nc1ccccc1NC(=O)c1c(Sc2ccc([N+](=O)[O-])cc2)cccc1[N+](=O)[O-]           CC50     > 200 µg/mL
1  COc1ccccc1NC(=O)c1c(N(C)C)cccc1S(=O)(=O)c1ccc([N+](=O)[O-])cc1           CC50     > 200 µg/mL
2  COc1ccccc1NC(=O)c1c(Sc2ccc([N+](=O)[O-])cc2)cccc1N1CCOCC1           CC50     > 200 µg/mL
3  COc1ccccc1NC(=O)c1c(Sc2ccc([N+](=O)[O-])cc2)cccc1[N+](=O)[O-]           CC50     > 200 µg/mL
4  Nc1cccc(Sc2ccc([N+](=O)[O-])cc2)c1C(=O)Nc1ccccc1I           CC50     > 200 µg/mL
5  COc1ccccc1NC(=O)c1c(NCCO)cccc1S(=O)(=O)c1ccc([N+](=O)[O-])cc1           CC50      72.7 µg/mL
6  COc1ccccc1NC(=O)c1c(Sc2ccc([N+](=O)[O-])cc2)cccc1N1CCNCC1           CC50      14.2 µg/mL
7  COc1ccccc1NC(=O)c1c(NS(=O)(=O)c2ccccc2)cccc1S(=O)(=O)c1ccc([N+](=O)[O-])cc1           CC50     > 200 µg/mL

----------
assay-summary: Solubility in aqueous solution
Assay type: physicochemical
condition-info: simulated gastric fluid; in aqueous solution (pH=2)
Source text: Solubility is an important parameter of druggability. […] They are with good solubility and can be formulated into an oral formulation. The prodrugs can be hydrolyzed into 46 which is with good fat-solubility and TI as well as distribution.
readout-label: solubility

                                   molecule  readout_label  reported_value
0  COc1ccccc1NC(=O)c1c(NC(=O)C(N)CCCCN)cccc1Sc1ccc([N+](=O)[O-])cc1.Cl (centres unmarked)     solubility      2850 µg/mL
1  COc1ccccc1NC(=O)c1c(NC(=O)CN)cccc1Sc1ccc([N+](=O)[O-])cc1.Cl     solubility      1290 µg/mL

----------
Test system: HIV-1IIIB
assay-summary: Anti-HIV activity in H9 cells
Format: cell-based
condition-info: Human immunodeficiency virus 1; HIV-1IIIB, H9 cells; read-out: EC50
readout-label: EC50 (µg/mL)

>>> df
                                smiles_text  qualifier_operator  reported_value
0  O=C(O)c1cccc(NC(=O)c2c(Sc3ccc([N+](=O)[O-])cc3)cccc2[N+](=O)[O-])c1                   =            83.9
1  Nc1cccc(NC(=O)c2c(N)cccc2Sc2ccc([N+](=O)[O-])cc2)c1                   =            41.5
2  COc1ccccc1NC(=O)c1c(NCCN)cccc1S(=O)(=O)c1ccc([N+](=O)[O-])cc1                   =             101
3  COc1ccccc1NC(=O)c1c(N)cccc1S(=O)(=O)c1cc(C)cc(C)c1                   >             200
4  COc1ccccc1NC(=O)c1cc(NC(C)=O)ccc1Sc1ccc([N+](=O)[O-])cc1                   >             200
5  COc1ccccc1NC(=O)c1c(NCCO)cccc1S(=O)(=O)c1ccc([N+](=O)[O-])cc1                   =             102
6  COc1ccccc1NC(=O)c1c(Sc2ccc([N+](=O)[O-])cc2)cccc1N1CCNCC1                   =            3.83
7  COc1cc(N)ccc1NC(=O)c1c(N)cccc1Sc1ccc([N+](=O)[O-])cc1                   =            28.3

----------
Each entry below lists one item and its recorded CC50 value.
assay-summary: Cytotoxicity (CC50) in H9 cells
Format: cell-based, human
condition-info: human, H9 cells; read-out: CC50
readout-label: CC50 (µg/mL)

In [3]: df
Out[3]:
                                    compound  readout_label  qualifier_operator  reported_value
 0  COc1ccccc1NC(=O)c1cc([N+](=O)[O-])ccc1Sc1ccc([N+](=O)[O-])cc1           CC50                   >             200
 1  COc1ccccc1NC(=O)c1c(N)cccc1Sc1cc(C)cc(C)c1           CC50                   >             200
 2  COc1ccccc1NC(=O)c1cc(NC(C)=O)ccc1Sc1ccc([N+](=O)[O-])cc1           CC50                   =            74.6
 3  COc1ccccc1NC(=O)c1c(N)cccc1S(=O)(=O)c1ccc(C(=O)O)cc1           CC50                   >             200
 4  COc1cc(N)ccc1NC(=O)c1c(N)cccc1Sc1ccc([N+](=O)[O-])cc1           CC50                   =            81.1
 5  COc1ccccc1NC(=O)c1c(N)cccc1S(=O)(=O)c1cc(C)cc(C)c1           CC50                   >             200
 6  COc1ccccc1NC(=O)c1cc(C(F)(F)F)ccc1Sc1ccc([N+](=O)[O-])cc1           CC50                   >             200
 7  COc1ccccc1NC(=O)c1c(N)cccc1Sc1ccc(C(=O)O)cc1           CC50                   >             200
 8  Nc1cccc(NC(=O)c2c(N)cccc2Sc2ccc([N+](=O)[O-])cc2)c1           CC50                   >             200
 9  COc1ccccc1NC(=O)c1c(NCCN)cccc1S(=O)(=O)c1ccc([N+](=O)[O-])cc1           CC50                   =            99.5
10  COc1ccccc1NC(=O)c1c(NCP(=O)(OC(C)C)OC(C)C)cccc1Sc1ccc([N+](=O)[O-])cc1           CC50                   =            25.4
11  COc1ccccc1NC(=O)c1c(NS(=O)(=O)c2ccc(C)cc2)cccc1S(=O)(=O)c1ccc([N+](=O)[O-])cc1           CC50                   >             200
12  COc1ccccc1NC(=O)c1c(N)cccc1Sc1ccc([N+](=O)[O-])cc1           CC50                   =             153
13  Nc1cccc(S(=O)(=O)c2ccc([N+](=O)[O-])cc2)c1C(=O)Nc1ccccc1I           CC50                   >             200
14  COc1ccccc1NC(=O)c1c(NC(=O)CN)cccc1S(=O)(=O)c1ccc([N+](=O)[O-])cc1.Cl [Compound 67, hydrochloride hydrochloride]           CC50                   =            94.9
15  COc1ccccc1NC(=O)c1c(NCCO)cccc1Sc1ccc([N+](=O)[O-])cc1           CC50                   =             116
